The measurements presented in this section are drawn from BigSolDB 2.1.

- measurement_conditions: in methanol, 308.15 K
measurement_type: solubility (mole fraction)
One number for each entry.

The compound Cc1nc2n(c(=O)c1CCN1CCC(c3noc4cc(F)ccc34)CC1)CCCC2 showed solubility (mole fraction) equal to 0.00673

----------
- measurement_conditions: in methanol, 298.15 K
measurement_type: solubility (mole fraction)
Answers are plain numbers.

The molecule Cc1nc2n(c(=O)c1CCN1CCC(c3noc4cc(F)ccc34)CC1)CCCC2 showed solubility (mole fraction) equal to 0.00443

----------
- measurement_conditions: in methanol, 313.15 K
measurement_type: solubility (mole fraction)
Give bare numbers.

The molecule Cc1nc2n(c(=O)c1CCN1CCC(c3noc4cc(F)ccc34)CC1)CCCC2 showed solubility (mole fraction) equal to 0.0083
